Test system: human SMAD7 mRNA
Assay: Antisense inhibition of human SMAD7 mRNA expression in Hep3B cells by 5-10-5 MOE gapmers, single concentration, electroporation, RT-PCR (Example 1, Study 1 and 2)
Format: cell-based
Conditions: Study 2, electroporation with 15,000 nM antisense oligonucleotide, 5-10-5 MOE gapmers targeting SEQ ID NO: 1 and 2
Experimental: Antisense oligonucleotides were designed to target human SMAD7 mRNA and were tested for their effects on SMAD7 mRNA expression in vitro. […] After a treatment period of approximately 24 hours, RNA was isolated from the cells and SMAD7 mRNA levels were measured by quantitative real-time PCR. […] SMAD7 mRNA levels were adjusted according to total RNA content, as measured by RIBOGREEN®. […]
Strand notation (5' to 3'): a small letter for the sugar, then the base; units joined by * are phosphorothioate-linked, units joined directly phosphodiester-linked; [ ] holds rarer units or linkages, { } end groups; capitals alone tell only the bases. e = 2'-O-(2-methoxyethyl) (MOE); [5mC] = 5-methylcytosine; d = 2'-deoxy (DNA)
endpoint name: % Inhibition

Query 771916 (antisense e[5mC]*e[5mC]*eT*eT*e[5mC]*dT*dT*dA*dA*dA*dT*dT*dT*dT*dT*eA*eA*eT*eT*eT) [compound 771916] yields % Inhibition of 0%

Query 771788 (antisense e[5mC]*e[5mC]*eA*eA*e[5mC]*dT*d[5mC]*dT*dG*dA*dA*d[5mC]*dG*dG*dA*eA*eA*eG*eA*eA) [compound 771788] yields % Inhibition of 30%

Query 771353 (antisense eT*eT*e[5mC]*e[5mC]*eA*dT*d[5mC]*d[5mC]*dA*dA*d[5mC]*dT*d[5mC]*dT*d[5mC]*eT*eT*eT*eG*e[5mC]) [compound 771353] yields % Inhibition of 0%

Query 483665 (antisense eG*e[5mC]*eG*eA*eA*d[5mC]*dA*dT*dG*dA*d[5mC]*d[5mC]*dT*d[5mC]*d[5mC]*eG*e[5mC]*eA*e[5mC]*eA) [compound 483665] yields % Inhibition of 55%

Query 771815 (antisense e[5mC]*eT*e[5mC]*e[5mC]*e[5mC]*dT*dT*dT*dT*d[5mC]*dA*d[5mC]*dT*dG*d[5mC]*eT*e[5mC]*e[5mC]*eA*e[5mC]) [compound 771815] yields % Inhibition of 70%

Query 771950 (antisense eA*eT*eG*e[5mC]*eA*dA*dA*dG*dG*dG*dA*d[5mC]*d[5mC]*d[5mC]*dT*eT*eA*eA*eT*eA) [compound 771950] yields % Inhibition of 0%

Query 771871 (antisense e[5mC]*eT*e[5mC]*e[5mC]*e[5mC]*dT*d[5mC]*dT*dG*d[5mC]*d[5mC]*d[5mC]*d[5mC]*dA*dG*eG*eA*eT*eT*e[5mC]) [compound 771871] yields % Inhibition of 15%

Query 771796 (antisense eG*eT*eT*eT*eG*d[5mC]*dG*d[5mC]*dA*d[5mC]*dG*dG*dG*dA*dT*eT*eG*eT*e[5mC]*eT) [compound 771796] yields % Inhibition of 16%

Query 771806 (antisense eA*e[5mC]*eA*eA*eT*dG*dA*dA*dT*dA*dA*dT*dT*dG*dT*eT*e[5mC]*eA*e[5mC]*eG) [compound 771806] yields % Inhibition of 0%

Query 771822 (antisense e[5mC]*eA*e[5mC]*e[5mC]*eA*dA*dA*dA*d[5mC]*dA*dA*dG*dT*dG*dT*e[5mC]*eT*eA*e[5mC]*e[5mC]) [compound 771822] yields % Inhibition of 44%

Query 771715 (antisense eA*eG*eT*e[5mC]*eT*d[5mC]*d[5mC]*dG*dA*dG*dT*dT*dA*dT*d[5mC]*e[5mC]*e[5mC]*e[5mC]*eA*eT) [compound 771715] yields % Inhibition of 67%

Query 771415 (eT*eG*e[5mC]*eG*e[5mC]*dT*d[5mC]*dG*dG*d[5mC]*dT*dG*dT*d[5mC]*d[5mC]*eG*eT*e[5mC]*eG*e[5mC]; antisense) [compound 771415] yields % Inhibition of 36%

Query 771444 (eA*eG*e[5mC]*e[5mC]*eT*d[5mC]*dT*dT*dG*dA*d[5mC]*dT*dT*d[5mC]*d[5mC]*eG*eA*eG*eG*eA; antisense) [compound 771444] yields % Inhibition of 67%

Origin of values: patent US10517889B2
